Please go through the items and note down their ΔOD 450 nm = OD450 (time = 16 hours) − OD450 (time zero), Mean.
test system: Escherichia coli (E. coli—ATCC #10536); assay: Automated assessment of efficacy in model surfactant base (2.85% sodium cocoyl glycinate + 1.85% sodium lauroamphoacetate, pH 10), 15 seconds exposure, delta OD450/OD590 in D/E quench; assay type: cell-based; settings: single active at […] w/v
Answers are plain numbers.

Use the examples below as a reference point.
CCCCc1ccc(O)cc1 [4-n-butylphenol] on Escherichia coli (E. coli—ATCC #10536) gives ΔOD 450 nm = OD450 (time = 16 hours) − OD450 (time zero), Mean = −0.61

C/C=C/c1ccccc1O [(E)-2-(prop-1-enyl)phenol] on Escherichia coli (E. coli—ATCC #10536) gives ΔOD 450 nm = OD450 (time = 16 hours) − OD450 (time zero), Mean = −0.57

C=C(C)C1CCC(C)C(O)C1 (stereo not shown) [2-methyl-5-(prop-1-en-2-yl)cyclohexanol] on Escherichia coli (E. coli—ATCC #10536) gives ΔOD 450 nm = OD450 (time = 16 hours) − OD450 (time zero), Mean = −0.50

Count: 2. Required value per item: ΔOD 450 nm = OD450 (time = 16 hours) − OD450 (time zero), Mean.
1. C=C(C)C1CCC(C)CC1O (stereo not shown) [isopulegol, 5-methyl-2-(prop-1-en-2-yl)cyclohexanol]
2. CCC1CCC(C(CO)CO)CC1 (stereo not shown)

1. −0.54
2. −0.54
